The entries below come with measured TGI values attached.
Tested on: HCC-2998 colon
Assay: NCI tumour cell line growth inhibition, 48 h

Known TGI results, listed for orientation:
| compound | readout-name | experimental-result |
| --- | --- | --- |
| CCOc1c(Br)cc(Br)cc1C=C(C#N)C#N | TGI | > 10 µM |
| C[C@]12CC[C@H]3[C@@H](CC=C4C[C@@H](N5CCCC5)CC[C@@]43C)[C@@H]1C[C@H](N1CCCCC1)[C@@H]2O | TGI | > 100 µM |
| O=c1[nH]c(=O)n(COC(CO)CO)cc1-c1ccccc1 | TGI | > 100 µM |
| O=C1[C@@H]2[C@@H](CN3CN(c4ccccc4)N=C(c4ccccc4)[C@@]23c2ccccc2)C(=O)N1c1ccccc1 | TGI | > 100 µM |
| CC1OC(OC2C(O[C@H]3CC[C@@]4(C)C(=CC[C@H]5[C@@H]6C[C@@H]7O[C@]8(CC[C@@H](C)CO8)[C@@H](C)[C@@H]7[C@@]6(C)CC[C@@H]54)C3)OC(CO)C(O)C2OC2OC(CO)C(O)C(O)C2O)C(O)C(O)C1O (stereo partly drawn) | TGI | 3.34 µM |
| Nc1[nH]c(=O)nc2c1ncn2C1OC(CO)C(O)C1O (stereo not drawn) | TGI | 88.9 µM |
| Cn1c(=O)oc2cc(C3CCC(=O)N3Cc3csc(-c4ccccc4)n3)ccc21 (stereo not drawn) | TGI | > 100 µM |

// moving on: another record for TGI
// query Reported TGI for HCC-2998 colon, given COc1cc2c(cc1OC)C(=O)N(c1ccc(OCCN3CCCC3)cc1)C2 ?
// result > 100 µM
